Cited source for all entries: patent US20250213573A1

Assay: Saturation solubility test of the compound of formula I in different solvents
Type: physicochemical
Settings: organic solvent or mixture, thermodynamic from solid; saturation solubility in Anhydrous ethanol

molecule	solubility
CCS(=O)(=O)N1CC(C(CC#N)n2cc(-c3nc(Nc4cnn(C)c4)nc4ccsc34)cn2)C1 (stereo not shown)	240 µg/mL

* * *

Assay: Saturation solubility test of the compound of formula I in different solvents
Type: physicochemical
Settings: aqueous buffer, thermodynamic from solid; saturation solubility in pH 6 phosphate buffer

compound	endpoint.unit	solubility
CCS(=O)(=O)N1CC(C(CC#N)n2cc(-c3nc(Nc4cnn(C)c4)nc4ccsc34)cn2)C1 (stereo not shown)	µg/mL	1

* * *

Assay: Saturation solubility test of the compound of formula I in different solvents
Type: physicochemical
Conditions: thermodynamic from solid; saturation solubility in Pure water

compound	solubility, µg/mL
CCS(=O)(=O)N1CC(C(CC#N)n2cc(-c3nc(Nc4cnn(C)c4)nc4ccsc34)cn2)C1 (stereo not shown)	1
